Cited source: ChEMBL document CHEMBL4619806

Each entry below lists one item and its recorded IC50 value.
target.or.system: Palmitoleoyl-protein carboxylesterase NOTUM (Homo sapiens, UniProt Q6P988, C330S)
Sequence (Q6P988 20-496 C330S limits assumed): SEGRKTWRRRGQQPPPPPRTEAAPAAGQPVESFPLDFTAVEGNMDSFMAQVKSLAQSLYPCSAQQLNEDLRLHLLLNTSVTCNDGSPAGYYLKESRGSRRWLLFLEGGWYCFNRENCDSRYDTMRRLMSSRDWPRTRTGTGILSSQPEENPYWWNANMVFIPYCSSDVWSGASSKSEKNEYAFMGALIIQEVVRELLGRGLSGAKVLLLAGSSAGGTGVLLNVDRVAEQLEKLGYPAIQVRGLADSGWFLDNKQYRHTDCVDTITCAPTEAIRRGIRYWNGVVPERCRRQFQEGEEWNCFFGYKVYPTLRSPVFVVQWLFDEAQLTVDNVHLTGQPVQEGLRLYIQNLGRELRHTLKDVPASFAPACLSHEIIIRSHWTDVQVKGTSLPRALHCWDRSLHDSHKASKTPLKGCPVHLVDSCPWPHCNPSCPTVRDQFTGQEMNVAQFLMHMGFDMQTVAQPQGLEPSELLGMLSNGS
method.notes: Inhibition of human Notum (S81 to T451 residues) Cys330Ser mutant expressed in HEK293S GnTI cells using OPTS as substrate incubated for 40 mins by fluorescence based assay

molecule | IC50
O=C(Nc1ccccc1)C1CCN(c2ccc(Cl)c(C(F)(F)F)c2)C1 (centres undefined) | 1 µM
Cc1[nH]ccc1C(=O)O | > 100 µM
O=C(O)c1c[nH]c(C(F)(F)F)c1 | > 100 µM
Cc1c(C(=O)O)cc(C(F)(F)F)n1Cc1ccccc1 | > 100 µM
